composite z-score values by entry
- protocol: compound binding in COS7 lysate, probe aLAP1, primary screen, cell lysate, small-molecule microarray (AID 1124);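 also: lysate comes from COS7 cells expressing LAP1 and is applied at 0.3 µg/mL; score merges spot fluorescence near 667 nm with signal-to-noise over triplicate slides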
- testSettings: probe aLAP1, fluorescence, higher = more signal
measuredEndpoint: composite z-score

[[record]]
molecule = "CCOC(=O)C[C@H]1[C@H](OC(=O)Cc2ccc3c(c2)OCO3)[C@@H](NC(=O)CC(C)C)c2cc(OCCCO)ccc2N1C(=O)Cc1ccc(OC)cc1"
readoutvalue = 0.166

[[record]]
molecule = "COC(=O)[C@@]1(Cc2ccccc2)[C@H]2c3cc(C(=O)N(C)C)n(CCc4ccc(O)c(OC)c4)c3C[C@H]2CN1C(=O)c1ccccc1"
readoutvalue = 0.638

[[record]]
molecule = "CC[C@H]1C2=C3C(CC[C@H]4C(OCc5ccc(F)cc5C(F)(F)F)OC[C@](C)([C@@H]34)N(C(=O)OC(C)(C)C)C2)C(COC)C1COC (stereo not given in full)"
readoutvalue = -0.115

[[record]]
molecule = "CC(C)(C)OC(=O)CC[C@]1(C(=O)NCC(O)CO)N=C(c2ccc(OCCCO)cc2)O[C@H]1c1ccccc1 (stereo not given in full)"
readoutvalue = 0.0605

[[record]]
molecule = "COC(=O)c1c(CC[C@@H](CO)NC(=O)N2CCC[C@H]2Cn2cc(Cc3ccccc3)nn2)oc(C(C)=O)c1C(=O)OC"
readoutvalue = 0.381

[[record]]
molecule = "COC(=O)[C@@]1(Cc2ccccc2N=[N+]=[N-])N=C(c2ccc(OCCCO)cc2)O[C@H]1c1ccccc1N=[N+]=[N-]"
readoutvalue = 0.494

[[record]]
molecule = "C=CCN1C(=O)[C@@]2(O[C@@H](CCn3cc([C@H](O)c4ccccc4)nn3)[C@H]([Si](C)(C)c3ccc(OC)cc3)[C@H]2C)c2cc(N3CCC3=O)ccc21"
readoutvalue = 0.249

[[record]]
molecule = "Cc1ccc(S[C@]2(C(=O)O)CC(=O)N(C3Cc4ccccc4C3)[C@@H]2c2ccc(CO)cc2)cc1"
readoutvalue = 0.826

[[record]]
molecule = "CN(C)C(=O)[C@@]1(CCS(=O)(=O)c2ccccc2)N=C(c2ccc(OCCCO)cc2)O[C@H]1c1ccccc1"
readoutvalue = 0.862

[[record]]
molecule = "CN(C)C(=O)[C@]1(CCS(=O)(=O)c2ccccc2)N=C(c2ccc(OCCCO)cc2)O[C@@H]1c1ccccc1N=[N+]=[N-]"
readoutvalue = 0.108

[[record]]
molecule = "C=C(/C(=C/C[C@H](OC(C)=O)c1cccc(OCCO)c1)c1cnc2ccccc2c1)C(C)C"
readoutvalue = -0.313

[[record]]
molecule = "COCCOC(=O)N1C(=O)[C@@]2(c3cc(C#CC4=CCCCC4)ccc31)[C@H](c1ccc(OCCO)cc1)N1[C@H](c3ccccc3)[C@H](c3ccccc3)OC(=O)[C@H]1[C@@H]2C(=O)N1CCN(c2ncccn2)CC1"
readoutvalue = 0.677

[[record]]
molecule = "COc1cccc(/C=C/C=O)c1"
readoutvalue = -0.12

[[record]]
molecule = "COC(=O)[C@@]1(Cc2ccccc2)[C@H]2c3cc(C(=O)N(C)C)n(Cc4c(CO)[nH]cc(C)c4=O)c3C[C@H]2CN1C(=O)c1ccccc1"
readoutvalue = -0.056

[[record]]
molecule = "CC1=C[C@@]2(CO)C(=O)[C@]3(CO3)[C@@H]1[C@H]1[C@]2(C)C=C(CO)C(=O)[C@]12CO2"
readoutvalue = -0.274

[[record]]
molecule = "CC(=O)NCCCC[C@@H]1NC(=O)[C@H]2C[C@@H](C(=O)NCCCC[N+](C)(C)C)[C@@H](c3cccc(OCCO)c3)N2C1=O"
readoutvalue = 1.16

[[record]]
molecule = "CC(C)C[C@@H]1NC(=O)[C@@H]2C[C@H](C(=O)NCCCCCN)[C@H](c3ccc(O)cc3)N2C1=O"
readoutvalue = 0.17

[[record]]
molecule = "C[C@@H]1ON(c2ccc(C(=O)OC(C)(C)C)cc2)[C@H](c2ccc(O)cc2)[C@H]1C(=O)N1C(=O)OC[C@H]1Cc1ccccc1"
readoutvalue = 0.581

[[record]]
molecule = "COC(=O)c1ccc([C@H](NC(=O)c2ccco2)[C@]2(C)C[C@H]2C2CCCCC2)cc1"
readoutvalue = -0.164

[[record]]
molecule = "CN1C(=O)C2C=CC(C(O)COCc3ccccc3)N(N(c3ccccc3)c3ccccc3)C2C1=O (stereo not given)"
readoutvalue = 0.0687

[[record]]
molecule = "O=C(NCC(F)(F)F)[C@@H]1c2ccccc2C(=O)N(Cc2ccc(OC(F)(F)F)cc2)[C@H]1c1ccc(CO)cc1"
readoutvalue = 0.203

[[record]]
molecule = "O=C1OCC=C[C@H]2OC34C=CCN(Cc5ccccc5)C(=O)[C@H]3N(CCCCCCO)C(=O)[C@@H]4[C@@H]12 (stereo not given in full)"
readoutvalue = 1.31

[[record]]
molecule = "CC(CO)N1C(=O)[C@@H]2[C@H]3C(=O)OCC=C[C@H]3OC23C=CCN(Cc2ccccc2)C(=O)[C@@H]13 (stereo not given in full)"
readoutvalue = -0.419

[[record]]
molecule = "Cc1ccc(S[C@]2(C(=O)NCCCN(C)C)CC(=O)N(C3CCCCC3)[C@@H]2c2ccc(CO)cc2)cc1"
readoutvalue = -0.183

[[record]]
molecule = "[N-]=[N+]=Nc1ccccc1[C@H]1OC(c2ccc(OCCCO)cc2)=N[C@@]1(CCS(=O)(=O)c1ccccc1)C(=O)NCCN1CCOCC1"
readoutvalue = 0.503


* * *

- targetDesc: Albumin (Bos taurus) (UniProt P02769)
- Sequence (P02769 whole entry, looked up): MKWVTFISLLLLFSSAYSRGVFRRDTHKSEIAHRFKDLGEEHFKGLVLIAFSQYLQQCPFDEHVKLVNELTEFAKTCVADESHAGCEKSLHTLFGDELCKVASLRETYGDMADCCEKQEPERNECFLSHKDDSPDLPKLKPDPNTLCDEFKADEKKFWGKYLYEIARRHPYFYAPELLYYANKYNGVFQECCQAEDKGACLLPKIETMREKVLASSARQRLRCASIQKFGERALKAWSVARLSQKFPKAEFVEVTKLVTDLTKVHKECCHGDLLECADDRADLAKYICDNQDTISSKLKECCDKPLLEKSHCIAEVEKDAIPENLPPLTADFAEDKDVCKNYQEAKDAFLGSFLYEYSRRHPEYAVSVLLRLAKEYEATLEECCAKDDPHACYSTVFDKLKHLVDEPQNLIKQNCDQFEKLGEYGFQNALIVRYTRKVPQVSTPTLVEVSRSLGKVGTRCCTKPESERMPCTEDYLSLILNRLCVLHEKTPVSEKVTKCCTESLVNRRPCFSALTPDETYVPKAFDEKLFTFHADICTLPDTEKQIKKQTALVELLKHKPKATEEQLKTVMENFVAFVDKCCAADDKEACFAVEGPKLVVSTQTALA
- protocol: bovine serum albumin binders on microarray, profiling panel, artefact control for SMM control protein annotation, biochemical, small-molecule microarray, Alexa647 label, 635/667 nm fluorescence (AID 1118);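 also: score merges 667 nm emission intensity and signal-to-noise per printed compound spot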
- testSettings: BSA-A647 binding, fluorescence 635 nm, higher = more signal
# binarize composite z-score: threshold -0.04 inclusive, high side met, low side not met

[[record]]
smilesrepr = "C=CC[C@]1(C(=O)NCCN2CCOCC2)N=C(c2ccc(OCCCO)cc2)O[C@H]1c1ccccc1CN=[N+]=[N-]"
discretelabel = "not met"

[[record]]
smilesrepr = "COc1ccc(CN(C2=CC[C@@]3(C(N)=O)C(=O)C(Cl)=C(Cl)C(=O)[C@@]3(C#N)C2)S(=O)(=O)c2ccc(Br)cc2)cc1"
discretelabel = "met"

[[record]]
smilesrepr = "COC(=O)[C@@]1(Cc2ccccc2)[C@H]2c3cc(C(=O)N(C)C)n(CCN4CNCC4=O)c3C[C@H]2CN1C(=O)c1ccccc1"
discretelabel = "met"

[[record]]
smilesrepr = "C=CCN1C(=O)[C@@]2(O[C@@H](CCn3cc([C@H](O)c4ccccc4)nn3)[C@H]([Si](C)(C)c3ccc(OC)cc3)[C@H]2C)c2cc(N3CCC3=O)ccc21"
discretelabel = "met"


* * *

- protocol: inhibitors of hydroxyurea-induced Chk1 phosphorylation, primary screen, imaging, HeLa, phospho-Chk1 nuclear intensity (AID 1187); also: test concentration not given here
- testSettings: hydroxyurea-induced phospho-Chk1 immunofluorescence imaging, higher = more signal
z-score values by entry
measuredEndpoint: z-score

[[record]]
compound = "CN(C)C(=O)[C@@]1(Cc2ccccc2CN=[N+]=[N-])N=C(c2ccc(OCCCO)cc2)O[C@H]1c1ccccc1CN=[N+]=[N-]"
measuredendpoint = "z-score"
readoutvalue = 0.127

[[record]]
compound = "C=CCC(OC(C)=O)[C@@H]1[C@@H](N(Cc2cc3ccccc3o2)C(=O)c2ccc(-c3ccccc3)cc2)c2cc(OCCCO)ccc2N1C(=O)c1ccc2ccccc2c1 (some centres not stated)"
measuredendpoint = "z-score"
readoutvalue = 0.433

[[record]]
compound = "CC1=C[C@@]2(CO)C(=O)[C@]3(CO3)[C@@H]1[C@H]1[C@]2(C)C=C(CO)C(=O)[C@]12CO2"
measuredendpoint = "z-score"
readoutvalue = -0.35

[[record]]
compound = "COc1ccc([Si](C)(C)[C@@H]2[C@@H](CC(=O)N(CCO)Cc3ccccc3)O[C@]3(C(=O)N(c4ccccc4)c4ccccc43)[C@H]2C)cc1"
measuredendpoint = "z-score"
readoutvalue = -0.327

[[record]]
compound = "COC(=O)c1c(CC[C@@H](CO)NC(=O)N[C@H](Cn2cc(C3(O)CCCCC3)nn2)C(C)C)oc(C(C)=O)c1C(=O)OC"
measuredendpoint = "z-score"
readoutvalue = 0.608

[[record]]
compound = "COC1OC[C@]2(C)[C@H]3C4=C(CN2C(=O)OC(C)(C)C)[C@H](C)C(CO)C(CO)C4CC[C@@H]13 (some centres not stated)"
measuredendpoint = "z-score"
readoutvalue = -0.0531

[[record]]
compound = "COCCOC(=O)N1C(=O)[C@@]2(c3cc(C#CC4=CCCCC4)ccc31)[C@H](c1ccc(OCCO)cc1)N1[C@H](c3ccccc3)[C@H](c3ccccc3)OC(=O)[C@H]1[C@@H]2C(=O)NC[C@H](O)c1ccccc1"
measuredendpoint = "z-score"
readoutvalue = 0.576


* * *

- protocol: FRG1 promoter luciferase signal modulators, primary screen, FRG1 inhibition for FSHD, cell-based, C2C12 myotubes, firefly/Renilla luciferase, luminescence (AID 1084)
- testSettings: higher = more signal, called active from +8 up or from −8 down
# binarize z-score: threshold -0.6 inclusive, high side 1, low side -1

[[record]]
compound = "COCCOC(=O)N1C(=O)[C@@]2(c3cc(C#Cc4ccc(OC)cc4)ccc31)[C@H](c1ccccc1OCCO)N1[C@H](c3ccccc3)[C@H](c3ccccc3)OC(=O)[C@H]1[C@@H]2C(=O)N1CCCCCCC1"
discretelabel = -1

[[record]]
compound = "COCCOC(=O)N1C(=O)[C@@]2(c3cc(C#Cc4ccc(OC)cc4)ccc31)[C@H](C(=O)Nc1nc3ccccc3s1)[C@H]1C(=O)O[C@H](c3ccccc3)[C@H](c3ccccc3)N1[C@@H]2c1ccc(O)cc1"
discretelabel = 1

[[record]]
compound = "C=C(/C(=C/C[C@H](OC(=O)c1ccncc1)c1ccc(CO)o1)c1cc(C(=O)OC)ccc1OC)C(C)C"
discretelabel = -1

[[record]]
compound = "CN(C)C(=O)[C@]1(CCS(=O)(=O)c2ccccc2)N=C(c2ccc(OCCCO)cc2)O[C@@H]1c1ccccc1N=[N+]=[N-]"
discretelabel = 1

[[record]]
compound = "COc1ccc(C(O)C2C=CC3C(=O)N(c4ccccc4)C(=O)C3N2Nc2ccc([N+](=O)[O-])cc2)cc1 (stereo not drawn)"
discretelabel = -1

[[record]]
compound = "C=CCN1C(=O)[C@@]2(O[C@@H](CCn3cc([C@H](O)c4ccccc4)nn3)[C@H]([Si](C)(C)c3ccc(OC)cc3)[C@H]2C)c2cc(N3CCC3=O)ccc21"
discretelabel = -1

[[record]]
compound = "C[C@H]1NC(=O)[C@@]23C(=O)N[C@@H](Cc4ccccc4)C2[C@H](C)[C@@]2(C)O[C@H]2C3/C=C/C/C=C\\CNC(=O)[C@H](Cc2ccccc2)NC1=O (stereo partly drawn)"
discretelabel = 1

[[record]]
compound = "CN1C(=O)C2C=CC(C(O)c3cccc4ccccc34)N(N3CCCCC3)C2C1=O (stereo not drawn)"
discretelabel = 1

[[record]]
compound = "C=C(C)[C@@H]1CC=C(C(O)C2C=CC3C(=O)N(c4ccccc4)C(=O)C3N2Nc2ccccc2F)CC1 (stereo partly drawn)"
discretelabel = -1

[[record]]
compound = "COCCOC(=O)N1C(=O)[C@@]2(c3cc(C#CC4=CCCCC4)ccc31)[C@H](C(N)=O)[C@H]1C(=O)O[C@H](c3ccccc3)[C@H](c3ccccc3)N1[C@@H]2c1ccccc1OCCO"
discretelabel = 1

[[record]]
compound = "COc1cccc(/C=C/C=O)c1"
discretelabel = 1

[[record]]
compound = "COC(=O)C1=CC(CCCO)=CC(C2CC2)N(C)C=C1C(=O)OC (stereo not drawn)"
discretelabel = 1

[[record]]
compound = "COC(=O)[C@@]1(Cc2ccc(F)cc2)[C@H]2c3cc(C(=O)N4CCCC4)n(CCc4ccc(O)c(O)c4)c3C[C@H]2CN1C(=O)c1ccccc1"
discretelabel = 1

